# System: glyQS T-box
# procedure summary: qRT-PCR transcriptional read-through of T-box-regulated glyQS (confirmation of inhibition of T-box mechanism)
# Format: cell-based, Bacillus subtilis 1A5
# experimental parameters: Table 2; confirmation of inhibition of T-box mechanism from qRT-PCR assay
measurement label: T-Box targeting

{"columns": ["molecule", "measurement label", "observed value"],
 "data": [
  ["COc1ccc(-c2csc(NC(=O)C3C4CCC(C4)C3C(=O)O)n2)cc1 (stereo not shown) [PKZ18-55]", "T-Box targeting", "No"],
  ["CCCCc1ccc(-c2nc(NC(=O)C3C4C=CC(C4)C3C(=O)O)sc2C)cc1 (stereo not shown) [PKZ18-52]", "T-Box targeting", "Yes"],
  ["CC(C)Cc1ccc(-c2csc(NC(=O)C3C4CCC(C4)C3C(=O)O)n2)cc1 (stereo not shown) [PKZ18-22]", "T-Box targeting", "Yes"],
  ["Cc1sc(NC(=O)C2C3CCC(O3)C2C(=O)O)nc1-c1ccc(CC(C)C)cc1 (stereo not shown) [PKZ18-57]", "T-Box targeting", "No"],
  ["CCCCc1ccc(-c2nc(NC(=O)C3C4CCC(O4)C3C(=O)O)sc2C)cc1 (stereo not shown) [PKZ18-54]", "T-Box targeting", "No"]
]}

[in] Looking for the measured T-Box targeting of CCc1ccc(-c2csc(NC(=O)C3C4CCC(C4=C(C)C)C3C(=O)O)n2)cc1 (stereo not shown) [PKZ18-58] , can you help?
[out] No

[in] Same thing, different molecule: Cc1sc(NC(=O)C2C3CCC(C3)C2C(=O)O)nc1-c1ccc(C(C)C)cc1 (stereo not shown) [PKZ18-00]
[out] Yes

[in] How about Cc1sc(NC(=O)C2C3C=CC(C3)C2C(=O)O)nc1-c1ccc(CC(C)C)cc1 (stereo not shown) [PKZ18-53] ?
[out] Yes

[in] Would you kindly repeat that for CCCc1ccc(-c2nc(NC(=O)C3C4CCC(O4)C3C(=O)O)sc2C)cc1 (stereo not shown) [PKZ18-56] ?
[out] No

[in] And then CC(C)c1ccc(-c2csc(NC(=O)C3C4CCC(C4)C3C(=O)O)n2)cc1 (stereo not shown) [PKZ18-21] , what is it?
[out] Yes
